Data provenance is ChEMBL document CHEMBL2406966.

Would you mind telling me the reported half-life of each entry?
# Assay Name: Plasma half life in rat at 10 mg/kg, po
# Type: ADME, organism-based
# Parameters: dose 10 mg/kg, route oral
The reply must contain the numeric value and, after it, the unit.

Given Smiles: CC(=O)Nc1cc(Nc2cc(NC3CC3)n3ncc(C#N)c3n2)ccc1C
Result: 2.6 h

# input Find the recorded half-life belonging to CC(=O)Nc1cc(Nc2cc(NC3COC3)n3ncc(C#N)c3n2)ccc1C1CC1 and report it.
# output 1.4 h

* * *

# Measurement Target: Glycogen synthase kinase-3 beta (Homo sapiens, UniProt P49841)
# Sequence (P49841 whole entry): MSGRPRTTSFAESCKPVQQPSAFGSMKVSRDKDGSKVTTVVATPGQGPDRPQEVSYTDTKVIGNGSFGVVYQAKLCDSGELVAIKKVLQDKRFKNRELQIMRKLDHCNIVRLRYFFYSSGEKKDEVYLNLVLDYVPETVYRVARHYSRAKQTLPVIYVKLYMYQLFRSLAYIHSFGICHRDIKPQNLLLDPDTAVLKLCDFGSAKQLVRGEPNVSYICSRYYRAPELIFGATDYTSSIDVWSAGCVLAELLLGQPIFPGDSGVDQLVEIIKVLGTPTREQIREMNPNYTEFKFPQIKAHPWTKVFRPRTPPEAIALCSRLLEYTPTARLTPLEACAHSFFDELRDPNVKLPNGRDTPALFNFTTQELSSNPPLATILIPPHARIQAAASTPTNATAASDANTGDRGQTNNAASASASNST
Result Type: IC50 (µM)
One number for each entry, in µM.

# input Find the recorded IC50 belonging to CC(=O)Nc1cc(Nc2cc(NC3CC3)n3ncc(C#N)c3n2)ccc1C and report it.
# output 2.6

* * *

# Assay Name: Aqueous solubility of the compound in phosphate buffer at pH 7.4 after 24 hrs
# Format: physicochemical
Output: class label from solubility at 24 h. Mapping: low band = under 7 µM, middle band = from 7 µM up to 50 µM, high band = 50 µM and over

Answered examples (3):
Given Smiles: CC(=O)Nc1cc(Nc2cc(NC3CCC3)n3ncc(C#N)c3n2)ccc1C
Label Value: low band

Given Smiles: CC(=O)Nc1cc(Nc2cc(Nc3ccn(CCO)n3)n3ncc(C#N)c3n2)ccc1C
Label Value: middle band

Given Smiles: CC(=O)Nc1cc(Nc2cc(Nc3ccn(CCN(C)C)n3)n3ncc(C#N)c3n2)ccc1C
Label Value: high band

# input GET /class?item= CC(=O)Nc1cc(Nc2cc(NC3CC3)n3ncc(C#N)c3n2)c(F)cc1C
# output low band

# input GET /class?item= CC(=O)Nc1cc(Nc2cc(Nc3cn(CCN4CCCC4)cn3)n3ncc(C#N)c3n2)ccc1C
# output high band

# input GET /class?item= CC(=O)Nc1cc(Nc2cc(Nc3cn(C)cn3)n3ncc(C#N)c3n2)ccc1C
# output high band

# input GET /class?item= CC(=O)Nc1cc(Nc2cc(Nc3ccn(CCN4CCCC4)n3)n3ncc(C#N)c3n2)ccc1C
# output low band

# input GET /class?item= CC(=O)Nc1cc(Nc2cc(NC3COC3)n3ncc(C#N)c3n2)c(F)cc1C1CC1
# output middle band

# input GET /class?item= CC(=O)Nc1ccc2ccn(-c3cc(NC4CC4)n4ncc(C#N)c4n3)c2c1
# output low band

# input GET /class?item= CC(=O)Nc1cc(Nc2cc(NC3CC3)n3ncc(C#N)c3n2)ccc1Cl
# output low band

# input GET /class?item= CC(=O)Nc1cc(Nc2cc(Nc3ccn(C)n3)n3ncc(C#N)c3n2)ccc1C
# output low band

# input GET /class?item= CC(=O)Nc1cc(Nc2cc(NC3COC3)n3ncc(C#N)c3n2)ccc1C1CC1
# output middle band

# input GET /class?item= CC(=O)Nc1cc(Nc2cc(Nc3cn(CCN(C)C)cn3)n3ncc(C#N)c3n2)ccc1C
# output high band

* * *

# Measurement Target: Voltage-gated inwardly rectifying potassium channel KCNH2 (Homo sapiens, UniProt Q12809)
# Sequence (Q12809 whole entry): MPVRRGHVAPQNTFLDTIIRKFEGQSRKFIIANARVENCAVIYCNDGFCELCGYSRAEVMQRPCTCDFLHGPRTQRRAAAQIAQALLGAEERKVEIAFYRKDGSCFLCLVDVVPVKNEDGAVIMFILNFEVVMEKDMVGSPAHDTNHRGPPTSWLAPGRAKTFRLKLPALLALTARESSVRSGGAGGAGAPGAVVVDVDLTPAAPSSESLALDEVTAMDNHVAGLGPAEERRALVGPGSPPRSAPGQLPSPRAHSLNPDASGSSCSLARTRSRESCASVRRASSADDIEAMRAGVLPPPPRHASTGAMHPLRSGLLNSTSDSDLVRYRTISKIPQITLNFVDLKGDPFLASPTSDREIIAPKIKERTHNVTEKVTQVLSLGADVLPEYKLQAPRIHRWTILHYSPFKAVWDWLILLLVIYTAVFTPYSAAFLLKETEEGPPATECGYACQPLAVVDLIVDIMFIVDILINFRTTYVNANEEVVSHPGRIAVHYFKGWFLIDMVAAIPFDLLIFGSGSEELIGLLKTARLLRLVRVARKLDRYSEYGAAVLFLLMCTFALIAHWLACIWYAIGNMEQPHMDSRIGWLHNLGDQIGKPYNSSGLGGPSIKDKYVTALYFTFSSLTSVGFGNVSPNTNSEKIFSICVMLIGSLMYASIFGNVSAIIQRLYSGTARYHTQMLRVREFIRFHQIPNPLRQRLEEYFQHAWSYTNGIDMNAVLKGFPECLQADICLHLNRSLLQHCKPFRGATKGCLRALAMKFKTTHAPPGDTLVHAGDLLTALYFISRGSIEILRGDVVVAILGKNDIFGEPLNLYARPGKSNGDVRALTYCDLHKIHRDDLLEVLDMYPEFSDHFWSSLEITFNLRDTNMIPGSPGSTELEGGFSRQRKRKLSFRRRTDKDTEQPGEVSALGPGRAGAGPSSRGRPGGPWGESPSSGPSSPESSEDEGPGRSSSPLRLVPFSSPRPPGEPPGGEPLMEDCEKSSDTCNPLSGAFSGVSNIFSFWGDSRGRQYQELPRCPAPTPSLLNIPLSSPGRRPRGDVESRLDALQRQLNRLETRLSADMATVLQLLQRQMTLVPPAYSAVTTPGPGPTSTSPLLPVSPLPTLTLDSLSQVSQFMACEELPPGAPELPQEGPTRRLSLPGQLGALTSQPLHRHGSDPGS
Result Type: IC50 (µM)
Numbers only, in µM.

Given Smiles: CC(=O)Nc1cc(Nc2cc(NC3CCC3)n3ncc(C#N)c3n2)c(F)cc1C
IC50 (µM): 16

Please find the next compound below.
# input Find the recorded IC50 belonging to CC(=O)Nc1cc(Nc2cc(NC3CC3)n3ncc(C#N)c3n2)ccc1C1CC1 and report it.
# output 19

* * *

# Measurement Target: Dual specificity tyrosine-phosphorylation-regulated kinase 3 (Homo sapiens, UniProt O43781)
# Sequence (O43781 whole entry): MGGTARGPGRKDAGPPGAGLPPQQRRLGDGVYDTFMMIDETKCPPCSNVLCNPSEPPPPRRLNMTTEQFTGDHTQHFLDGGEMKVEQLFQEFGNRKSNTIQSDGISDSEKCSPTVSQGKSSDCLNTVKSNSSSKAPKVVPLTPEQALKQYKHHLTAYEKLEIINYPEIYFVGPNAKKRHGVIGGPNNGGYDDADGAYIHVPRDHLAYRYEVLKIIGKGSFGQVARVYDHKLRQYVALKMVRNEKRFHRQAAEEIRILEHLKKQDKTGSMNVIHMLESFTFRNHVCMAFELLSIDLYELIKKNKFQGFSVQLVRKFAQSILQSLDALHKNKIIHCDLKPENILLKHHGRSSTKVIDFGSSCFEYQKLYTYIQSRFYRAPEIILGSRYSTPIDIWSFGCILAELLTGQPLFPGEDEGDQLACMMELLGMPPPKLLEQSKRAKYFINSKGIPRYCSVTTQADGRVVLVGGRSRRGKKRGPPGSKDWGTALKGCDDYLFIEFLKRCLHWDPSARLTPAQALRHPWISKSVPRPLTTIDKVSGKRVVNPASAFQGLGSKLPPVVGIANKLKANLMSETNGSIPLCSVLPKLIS
Result Type: pIC50
Give bare numbers, as −log10 of the molar value.

# input Find the recorded pIC50 belonging to CC(=O)Nc1cc(Nc2cc(NC3CC3)n3ncc(C#N)c3n2)ccc1C and report it.
# output 7.15

* * *

# Test system: MDR1
# Assay Name: Apparent permeability across apical to basolateral side in porcine LLC cells expressing MDR1
# Assay type: ADME, cell-based, Sus scrofa
# Test Settings: pig, LLC-PK1
Result Type: Papp A→B (×10⁻⁶ cm/s)
Give bare numbers, in ×10⁻⁶ cm/s.

# input Find the recorded Papp A→B belonging to CC(=O)Nc1cc(Nc2cc(Nc3ccn(CCN4CCCC4)n3)n3ncc(C#N)c3n2)ccc1C and report it.
# output 0.2

* * *

Would you mind telling me the reported fraction unbound at 10 µM of each entry?
# Assay Name: Fraction unbound in human plasma at 10 uM by equilibrium dialysis method
# Type: ADME, cell-free
Numbers only.

For every listed record, write down its fraction unbound at 10 µM.
1. CC(=O)Nc1cc(Nc2cc(NC3CC3)n3ncc(C#N)c3n2)ncc1C
2. CC(=O)Nc1cc(Nc2cc(NC3CC3)n3ncc(C#N)c3n2)ccc1C1CC1
3. CC(=O)Nc1cc(Nc2cc(NC3CC3)n3ncc(C#N)c3n2)ccc1C
4. CC(=O)Nc1cc(Nc2cc(NC3CCC3)n3ncc(C#N)c3n2)ccc1C
5. CC(=O)Nc1cc(Nc2cc(NC3COC3)n3ncc(C#N)c3n2)c(F)cc1C
6. CC(=O)Nc1cc(Nc2cc(NC3COC3)n3ncc(C#N)c3n2)ccc1C
7. CC(=O)Nc1cc(Nc2cc(NC3CC3)n3ncc(C#N)c3n2)ccc1C(C)C

# output
[0.12, 0.02, 0.08, 0.024, 0.26, 0.28, 0.04]

For every listed record, write down its fraction unbound at 10 µM.
1. CC(=O)Nc1cc(Nc2cc(NC3CC3)n3ncc(C#N)c3n2)ccc1Cl
2. CC(=O)Nc1cc(Nc2cc(NC3CCC3)n3ncc(C#N)c3n2)c(F)cc1C
3. CC(=O)Nc1cc(Nc2cc(NC3COC3)n3ncc(C#N)c3n2)c(F)cc1C1CC1

# output
[0.03, 0.043, 0.21]

* * *

# Assay Name: Intrinsic clearance in rat liver microsomes
# Format: ADME, Microsome
# Test Settings: read-out: CLH
Result Type: microsomal CLint (µL/min/mg)
Give bare numbers, in µL/min/mg.

Answered cases to consult:
Given Smiles: CC(=O)Nc1cc(Nc2cc(Nc3ccn(CCN(C)C)n3)n3ncc(C#N)c3n2)ccc1C
microsomal CLint, µL/min/mg: 80
--
Given Smiles: CC(=O)Nc1cc(Nc2cc(Nc3ccn(CCO)n3)n3ncc(C#N)c3n2)ccc1C
microsomal CLint, µL/min/mg: 17
--
Given Smiles: CC(=O)Nc1ccc2ccn(-c3cc(NC4CC4)n4ncc(C#N)c4n3)c2c1
microsomal CLint, µL/min/mg: 33
--
Given Smiles: CC(=O)N1CCc2ccc(Nc3cc(NC4CC4)n4ncc(C#N)c4n3)cc21
microsomal CLint, µL/min/mg: 120
--
Given Smiles: CC(=O)Nc1cc(Nc2cc(NC3CCC3)n3ncc(C#N)c3n2)ccc1C
microsomal CLint, µL/min/mg: 47

For every listed record, write down its microsomal CLint.
1. CC(=O)Nc1cc(Nc2cc(NC3CC3)n3ncc(C#N)c3n2)cnc1C
2. CC(=O)Nc1cc(Nc2cc(Nc3cn(CCN4CCCC4)cn3)n3ncc(C#N)c3n2)ccc1C
3. CC(=O)Nc1cc(Nc2cc(NC3CC3)n3ncc(C#N)c3n2)c(F)cc1C1CC1
4. CC(=O)Nc1cc(Nc2cc(Nc3cn(CCO)cn3)n3ncc(C#N)c3n2)ccc1C
5. CC(=O)Nc1cc(Nc2cc(NC3CCC3)n3ncc(C#N)c3n2)c(F)cc1C
6. CC(=O)Nc1cc(Nc2cc(NC3CC3)n3ncc(C#N)c3n2)ccc1C

# output
[50, 30, 19, 43, 31, 15]

For every listed record, write down its microsomal CLint.
1. CC(=O)Nc1cc(Nc2cc(Nc3ccn(CCN4CCOCC4)n3)n3ncc(C#N)c3n2)ccc1C
2. CC(=O)Nc1cc(Nc2cc(NC3COC3)n3ncc(C#N)c3n2)ccc1C
3. CC(=O)Nc1cc(Nc2cc(Nc3cn(C)cn3)n3ncc(C#N)c3n2)ccc1C

# output
31
17
20

For every listed record, write down its microsomal CLint.
1. CC(=O)Nc1cc(Nc2cc(NC3CC3)n3ncc(C#N)c3n2)c(F)cc1C
2. CC(=O)Nc1cc(Nc2cc(NC3CC3)n3ncc(C#N)c3n2)ccc1C(C)C

# output
1. 36
2. 56
